Measured insulin secretion stimulation of individual entries
assay-procedure: stimulators of insulin release from INS-1E, primary screen, cell-based, 5 mM glucose, NPC library (AID 1117329); further: reference of the scale not given here
particulars: rat INS-1E insulin secretion, at 10 µM, active compounds read high
Kindly provide the numeric value in % only, without the unit symbol.

The following compounds have reported results that may help.
# compound, insulin secretion stimulation, %
records = [
    ("Cc1oc(=O)oc1CN1CCN(c2cc3c(cc2F)c(=O)c(C(=O)O)c2n3C(C)S2)CC1 (stereo not given)", 1.6),
    ("NC(=O)C(c1ccccc1)(c1ccccc1)[C@@H]1CCN(CCc2ccc3c(c2)CCO3)C1", 16),
    ("COc1nc(N)nc2c1ncn2[C@@H]1O[C@H](CO)[C@@H](O)[C@@H]1O", -1.9),
]

In: Quick one: give measured insulin secretion stimulation for O=C1NC(=O)[C@@]2(CCOc3ccc(F)cc32)N1
Out: 1.1

In: Quick one: give measured insulin secretion stimulation for Cc1cc2c(cc1S(N)(=O)=O)S(=O)(=O)CCC2
Out: 1.4
